biological target: BR P.1 variant RBD (R319-F541 with K417T, E484K, N501Y), C-terminal 6-His (SARS-CoV-2, UniProt P0DTC2 319-541); assay: lateral flow NC50, RBD-AuNP vs immobilised ACE2
measured.metric: log10(IC50) (log10 of the value in µg/mL)

binder	log10(IC50)
1035740 (antibody, V domains shown) VH: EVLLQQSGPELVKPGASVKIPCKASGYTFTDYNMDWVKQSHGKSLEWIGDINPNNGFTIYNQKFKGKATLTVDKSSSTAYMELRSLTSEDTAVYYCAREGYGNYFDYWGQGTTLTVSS VL: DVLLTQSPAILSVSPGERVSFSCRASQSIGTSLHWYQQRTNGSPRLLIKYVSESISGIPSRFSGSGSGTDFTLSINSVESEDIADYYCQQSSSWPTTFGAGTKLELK	0.15
1035709 (antibody, V domains shown) VH: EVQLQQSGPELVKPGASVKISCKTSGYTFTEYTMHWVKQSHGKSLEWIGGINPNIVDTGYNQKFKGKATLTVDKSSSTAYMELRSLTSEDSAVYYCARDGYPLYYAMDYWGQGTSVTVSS VL: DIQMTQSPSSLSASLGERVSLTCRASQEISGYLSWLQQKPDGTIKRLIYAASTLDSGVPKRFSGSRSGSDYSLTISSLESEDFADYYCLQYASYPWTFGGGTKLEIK	-0.15
1035753 (antibody, V domains shown) VH: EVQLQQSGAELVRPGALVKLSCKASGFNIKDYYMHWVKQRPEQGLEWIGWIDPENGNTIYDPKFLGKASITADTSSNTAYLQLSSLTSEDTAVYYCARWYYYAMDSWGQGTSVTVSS VL: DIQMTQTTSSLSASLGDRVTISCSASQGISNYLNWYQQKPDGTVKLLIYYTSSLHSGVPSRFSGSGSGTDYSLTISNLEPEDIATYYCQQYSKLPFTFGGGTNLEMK	0.34
1035762 (antibody, V domains shown) VH: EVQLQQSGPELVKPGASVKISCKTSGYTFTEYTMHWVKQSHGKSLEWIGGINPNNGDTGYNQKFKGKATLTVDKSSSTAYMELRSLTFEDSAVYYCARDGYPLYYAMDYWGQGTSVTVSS VL: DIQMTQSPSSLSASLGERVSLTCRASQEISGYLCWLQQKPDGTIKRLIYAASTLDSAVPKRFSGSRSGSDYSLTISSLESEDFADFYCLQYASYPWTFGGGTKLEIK	-0.16
1035224 (antibody, V domains shown) VH: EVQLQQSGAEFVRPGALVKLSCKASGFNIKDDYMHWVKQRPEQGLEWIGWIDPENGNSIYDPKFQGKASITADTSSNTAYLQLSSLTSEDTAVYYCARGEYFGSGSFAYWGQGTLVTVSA VL: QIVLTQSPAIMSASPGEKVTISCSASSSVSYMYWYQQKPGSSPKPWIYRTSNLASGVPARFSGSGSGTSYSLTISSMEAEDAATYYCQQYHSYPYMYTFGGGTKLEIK	0.05
1035419 (antibody, V domains shown) VH: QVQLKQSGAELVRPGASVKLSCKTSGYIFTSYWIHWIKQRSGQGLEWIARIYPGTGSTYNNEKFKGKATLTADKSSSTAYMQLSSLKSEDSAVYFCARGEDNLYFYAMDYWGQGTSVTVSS VL: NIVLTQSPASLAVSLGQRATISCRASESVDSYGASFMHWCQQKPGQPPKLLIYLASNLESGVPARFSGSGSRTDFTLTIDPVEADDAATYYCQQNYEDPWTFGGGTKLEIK	1.65
